# Test system: Plasmodium falciparum
# Method summary: Primary screen in NF54 nanoGlo assay, in single point, at 2uM, 72h
# Assay type: functional, Erythrocyte
# Reported conditions: timepoint 72 hour
In all, about 150,000 compounds went through this assay and about 540 (0.36%) showed an effect of 50% or more. Shown is part of a subset that was picked to be rich in strong results.
For each entry below, report its % Inhibition value.
Answer format: numeric, % implied, no suffix.

Query: Write % Inhibition of Cc1ccc(S(=O)(=O)N(CC(=O)N[C@@H](C)c2ccccc2)c2cccc(Br)c2)cc1 ; system used: Plasmodium falciparum
Reply: 50

Query: // output % Inhibition; input O=C(Nc1ccc2c(c1)OCO2)c1ccc(=O)n(Cc2ccc(Cl)cc2)c1 ; system Plasmodium falciparum
Reply: -15

Query: Find the measured % Inhibition of OC(CNC1CCCNc2ccccc21)c1ccc(Cl)s1 (stereo unspecified) with Plasmodium falciparum as test system.
Reply: 57

Query: Provide % Inhibition, recorded with Plasmodium falciparum, of O=c1c2cnc(N3CCc4ccccc4C3)nc2ccn1-c1ccc(Cl)c(Cl)c1
Reply: -8

Query: Check Plasmodium falciparum data and give % Inhibition for OCc1cc(CN[C@H]2CCCNc3ccccc32)ccc1F .
Reply: 4

Query: Jot down % Inhibition (Plasmodium falciparum) of Cc1ccc(C(=O)N2CCCC[C@H]2c2nnc(-c3ccncc3)[nH]2)cn1 .
Reply: -12

Query: Lab note: Plasmodium falciparum assay, enter % Inhibition for CN(Cc1ccccc1)C(=O)c1nc2ccccc2s1 here
Reply: -10

Query: Fill in % Inhibition for Cc1csc(CNC(=O)NCc2nnc3n2CCOCC3)c1 tested with Plasmodium falciparum.
Reply: -2

Query: Report % Inhibition on Plasmodium falciparum for this entry: CC1CCN(Cc2ccc(-c3ncnn3C(C)(C)C)o2)CC1
Reply: -6

Query: Look up Plasmodium falciparum data: % Inhibition of CCn1ncnc1CNC1CC(c2ccc(Br)cc2)C1 (stereo unspecified) , then report it.
Reply: -13

Query: Report measured % Inhibition on Plasmodium falciparum; entry: Cc1ccc([C@H](C)NC(=O)CCc2ccc3[nH]cnc3c2)cc1
Reply: -2

----------
For each record, write down the corresponding % Inhibition.
# Test system: Plasmodium falciparum
# Method summary: Primary screen in NF54 nanoGlo assay, in single point, at 2uM, 72h
# Format: functional, Erythrocyte
# Reported conditions: timepoint 72 hour
Screen size: about 150,000 compounds; about 540 (0.36%) showed an effect of 50% or more. Shown is part of a subset that was picked to be rich in strong results.
Report as a plain number; the unit % is understood.

Query: Note down % Inhibition recorded for c1ccc(CN2CC[C@H](N3CCOCC3)C2)cc1
Reply: 3

Query: Respond only with % Inhibition recorded for C[C@H](NCCn1cccn1)C(=O)N1CCCCC1
Reply: 3

Query: For the compound CC(=O)NCCn1ccnc1-c1ccc(F)c(F)c1F , give its measured % Inhibition value.
Reply: -9

Query: Kindly indicate its recorded % Inhibition. Item: Cc1ccc(NC(=O)Cc2nnc(-c3ccc4ncccc4c3)o2)c(Cl)c1
Reply: -6

Query: Fill in % Inhibition for record NC1CC(c2cc(NCc3cccnc3)nc(C3CC3)n2)C1 (stereo unspecified)
Reply: 15

Query: For CN1CCCN(c2ccc3ccc(F)cc3n2)CC1 , write its % Inhibition.
Reply: -5

Query: Item N[C@H]1C[C@H](c2cc(NCCCc3cccnc3)nc(C3CC3)n2)C1 : provide % Inhibition
Reply: 71

Query: Tell me its % Inhibition given COc1ccc(-c2c(-c3ccc(Cl)cc3)[nH]c3c2c(=O)[nH]c(=O)n3C)cc1 as the entry.
Reply: -5

Query: Query % Inhibition for CC(C)(C)[C@H]1CCc2c(sc(NC(=O)C3(F)C(F)(F)C(F)(F)C(F)(F)C(F)(F)C3(F)F)c2C#N)C1
Reply: 77

Query: Look up and report measured % Inhibition for this entry: Cc1nn(-c2nc3ccccc3[nH]2)c2c1[C@@H](c1ccc(Cl)c(Cl)c1)CC(=O)N2
Reply: 14

Query: Supply % Inhibition value. Item: CN(C)c1ncc(CN[C@H]2[C@H](c3ccccc3)C2(C)C)cn1
Reply: 10

Query: Report % Inhibition for Cc1nn(-c2nc3ccccc3[nH]2)c2c1[C@@H](c1cccnc1)CC(=O)N2
Reply: 68

Query: In one line, give reported % Inhibition of the entry COc1cccc(NC(=O)Cn2c(C)ccc(NS(=O)(=O)c3ccc(C)cc3)c2=O)c1 .
Reply: 74

Query: Using known records, supply % Inhibition for COc1ccc(-c2c(-c3ccc(C)c(C)c3)[nH]c3c2c(=O)[nH]c(=O)n3C)cc1
Reply: -4

Query: Dear colleague, please send me the reported % Inhibition for Cc1ccc(CN2CCN([C@H]3CCN(Cc4ccccc4)C3)CC2)nn1 when you can.
Reply: 6

Query: For COc1ccc2[nH]c3c(c2c1)CCN(C(=O)c1ccc(C)c(C)c1)[C@H]3COCc1ccccc1 , write its % Inhibition.
Reply: 0

Query: Output measured % Inhibition for this item: CCC(C)(C)NC(=O)Cn1c(C)ccc(NS(=O)(=O)c2ccc(C)cc2)c1=O
Reply: -4

Query: Report measured % Inhibition; entry is CC(CCc1cccn1C)NC(=O)NC1CCN(c2cnn(C)c2)C1 (stereo unspecified)
Reply: -1

Query: Supply measured % Inhibition of COc1ccc(-c2c(-c3cccc(OC)c3)[nH]c3c2c(=O)[nH]c(=O)n3C)cc1 in your reply.
Reply: 90

Query: Tell us which % Inhibition value is on record for Cc1nc(-c2ccnc(NCc3cnc(N(C)C)nc3)c2)n[nH]1
Reply: 5

Query: Hello, please tell me recorded % Inhibition for this one: COC(=O)[C@H]1CCc2nnc(Cc3ccc(F)cc3)n2C1
Reply: -9

Where do the numbers come from? From ChEMBL document CHEMBL4888484.
